Tested on: EKVX NSCLC
Test Description: NCI tumour cell line growth inhibition, 48 h
Parameter: TGI. Scope: all listed entries.
Readout Name: TGI (µM)

Compound: O=S(=O)(c1ccccc1)n1c(C(O)c2ccccc2)cc2ccccc21 (stereo not drawn)
Target Entity: EKVX NSCLC
Units Label: µM
Relation Sign: =
Quantitative Result: 41.6

Compound: O=C(O)c1ccc(NCc2nc3cc(Cl)c(Cl)cc3[nH]2)cc1
Target Entity: EKVX NSCLC
Units Label: µM
Relation Sign: >
Quantitative Result: 100

Compound: CC(=O)OCC(OC(C)=O)C(OC(C)=O)C(OC(C)=O)C(=O)CNn1c(-c2ccc(C)cc2)nc2ccccc2c1=O (stereo not drawn)
Target Entity: EKVX NSCLC
Units Label: µM
Relation Sign: >
Quantitative Result: 100

Compound: COc1cc2c3c(n(CCCNC4=NCCS4)c(=O)c2cc1OC)-c1cc2c(cc1C3=O)OCO2
Target Entity: EKVX NSCLC
Units Label: µM
Relation Sign: =
Quantitative Result: 8.8

Compound: O=C(Cc1ccc(F)cc1)NC1=C(Cl)C(=O)c2ccccc2C1=O
Target Entity: EKVX NSCLC
Units Label: µM
Relation Sign: =
Quantitative Result: 16

Compound: CCC(N)(C(=O)O)C(C)C (stereo not drawn)
Target Entity: EKVX NSCLC
Units Label: µM
Relation Sign: >
Quantitative Result: 100

Compound: O=C1C=C(Nc2ccc(Br)cc2)c2ccccc2C1=O
Target Entity: EKVX NSCLC
Units Label: µM
Relation Sign: =
Quantitative Result: 32.5

Compound: CC(=O)OC12c3ccccc3C1CCCC21OCCCO1 (stereo not drawn)
Target Entity: EKVX NSCLC
Units Label: µM
Relation Sign: >
Quantitative Result: 100
